Collected from the literature: pIC50 of various compounds toward UniProt P35968.
pIC50: −log10 of the molar value.

Here is how some compounds turned out for pIC50.
COCCOc1cc2ncnc(Nc3ccc(NC(=O)NC4CC4)c(Cl)c3)c2c2c1OCCO2 = > 7.30
O=C(Nc1ccc(C(=O)c2ccc3ncc(N4CCNCC4)nc3c2)cc1)Nc1ccc(F)c(C(F)(F)F)c1 = < 7.00
COCCOc1cc2nccc(Sc3ccc(NC(=O)Nc4ccc(C)cc4)s3)c2cc1C#N = 7.80
CCCS(=O)(=O)Nc1ccc(F)c(C(=O)c2c[nH]c3ncc(-c4ccc(SC)nc4)cc23)c1F = ≥ 5.00

query: Determine its reported pIC50: CN1CCC(c2ccc(NC(=O)Nc3ccc(Oc4ccnc(NC(=O)C5CC5)c4)c(F)c3)cc2C(F)(F)F)CC1
result: 7.81

query: Determine its reported pIC50: CS(=O)(=O)c1cccc(-c2cnc3[nH]cc(C(=O)c4cc(NS(=O)(=O)c5cccnc5)ccc4F)c3c2)c1
result: ≥ 5.00

query: Determine its reported pIC50: Cc1cc(C)cc(Nc2nc3c(NCCCN(C)C)nccn3n2)c1
result: 4.30 to 5.52

query: Determine its reported pIC50: COc1ccc(-c2ccnc3[nH]cc(C(=O)c4cccc(Cl)c4Cl)c23)cn1
result: ≥ 5.00

query: Determine its reported pIC50: Oc1cccc(Cc2c[nH]c3ncc(-c4cccs4)cc23)c1F
result: ≥ 5.00

query: Determine its reported pIC50: CCOc1ccn(-c2ccc(F)cc2)c(=O)c1C(=O)Nc1ccc(Oc2ccnc3cc(OC)c4c(c23)OCCO4)cc1Cl
result: 6.30 to 7.30

----------
Collected from the literature: IC50 of various molecules toward Vascular endothelial growth factor receptor 2 (Homo sapiens).

Here is how some molecules turned out for IC50.
Cn1cc(C(=O)Nc2ccc(Oc3ccnc4ccc5c(c34)OCCO5)cc2F)c(=O)n(-c2ccc(F)cc2)c1=O = 500 to 5000 nM
Cc1cnc2[nH]cc(C(=O)c3cccc(NS(=O)(=O)C4CCCC4)c3)c2c1 = ≤ 10000 nM
C=CC(=O)Nc1cc2c(Nc3ccc(Br)cc3F)ncnc2cc1OCCNC(=S)NCC = 354 nM
COc1cccc(-c2cc3nccc(-c4cccc(OC)c4)c3o2)c1 = 3000 to 50000 nM
COc1cc2nccc(Oc3ccc(NC(=S)N4CC(F)(F)C4)c(Cl)c3)c2cc1C(N)=O = < 50 nM

query: Write down measured IC50 (Vascular endothelial growth factor receptor 2 (Homo sapiens)) for this molecule. COc1ccncc1NC(=O)c1ccnc2[nH]c(-c3ccc(F)cc3)nc12
result: 520 nM

query: Write down measured IC50 (Vascular endothelial growth factor receptor 2 (Homo sapiens)) for this molecule. COc1cnc2[nH]cc(C(=O)c3c(F)ccc(OCC(F)(F)F)c3Cl)c2c1
result: ≤ 10000 nM

query: Write down measured IC50 (Vascular endothelial growth factor receptor 2 (Homo sapiens)) for this molecule. COc1cc(OC)cc(N(CCNC(C)C)c2ccc3ncc(C(=O)NCCCN4CCN(C)CC4)nc3c2)c1
result: > 1000 nM

----------
Collected from the literature: pIC50 of various molecules toward Vascular endothelial growth factor receptor 2 (Homo sapiens).
pIC50: −log10 of the molar value.

Here is how some molecules turned out for pIC50.
Cn1cc(-c2ccc3c(-c4cc(NCC(O)CO)cc(-c5ccc(F)cc5F)c4)cnn3c2)cn1 (stereo not shown) = 8.44
COc1ccnc2[nH]cc(C(=O)c3cccc(NS(=O)(=O)c4ccc(C(F)(F)F)cc4)c3F)c12 = ≥ 5.00
COCCOc1ccc(NC(=O)Nc2ccc(Oc3cc(-c4cnn(C)c4)ncn3)cc2)cc1C(F)(F)F = ≥ 5.00

query: Write down measured pIC50 (Vascular endothelial growth factor receptor 2 (Homo sapiens)) for this molecule. CCCS(=O)(=O)Nc1ccc(F)c(C(=O)c2c[nH]c3ncc(-c4cnc(SC)nc4)cc23)c1F
result: ≥ 5.00
